Target: T1, Gadd45β/MKK7 complex (biotin-hGadd45β with coated GST-MKK7, ELISA format) (human, UniProt O75293 1-160; O14733 1-419, biotinylated (sites not given))
T1 construct: not shown: glutathione S-transferase (GST) fusion partner
T1 sequence (looked up) 1: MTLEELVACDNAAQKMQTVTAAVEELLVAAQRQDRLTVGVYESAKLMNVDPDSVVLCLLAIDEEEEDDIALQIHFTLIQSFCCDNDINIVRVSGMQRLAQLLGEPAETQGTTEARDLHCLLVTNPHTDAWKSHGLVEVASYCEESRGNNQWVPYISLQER
T1 sequence (looked up) 2: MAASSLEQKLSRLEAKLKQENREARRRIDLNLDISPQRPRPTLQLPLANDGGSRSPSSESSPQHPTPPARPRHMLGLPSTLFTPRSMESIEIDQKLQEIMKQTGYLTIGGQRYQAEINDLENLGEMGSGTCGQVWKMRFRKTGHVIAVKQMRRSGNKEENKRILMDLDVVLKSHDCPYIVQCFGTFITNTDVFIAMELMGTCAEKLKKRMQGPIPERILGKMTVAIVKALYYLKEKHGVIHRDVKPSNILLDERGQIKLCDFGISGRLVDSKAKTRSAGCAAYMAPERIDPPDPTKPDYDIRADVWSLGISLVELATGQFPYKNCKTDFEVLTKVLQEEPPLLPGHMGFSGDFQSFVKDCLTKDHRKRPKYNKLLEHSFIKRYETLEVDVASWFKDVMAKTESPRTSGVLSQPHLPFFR
Test: ELISA competition: coated GST-MKK7 (42 nM), soluble biotin-hGadd45β (21 nM), increasing peptide; read-out % binding of biotin-hGadd45β to MKK7
pIC50: −log10 of the molar value.
Quantity: pIC50

>>> print(df.to_string())
                                     binder  assay_result
0  Ac-YDHF-NH2 (also called Ac-LTP1; LTP1) [Ac-YDHF-NH2]          9.40
1  Ac-YERF-NH2 (also called Ac-LTP2; LTP2) [Ac-YERF-NH2]          9.40
